Measurement Target: cIAP1-BIR3 (Homo sapiens, UniProt Q13490)
Sequence (Q13490 260-352 limits assumed): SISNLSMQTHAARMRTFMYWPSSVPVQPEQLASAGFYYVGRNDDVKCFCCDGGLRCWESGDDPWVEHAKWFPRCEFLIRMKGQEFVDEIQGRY
Measurement Notes: Biacore SPR solution competition binding assay vs smac7 mer peptide, cIAP1-BIR3
Test Conditions: citrate salt form tested; 6 nM cIAP1-BIR3; 25° C.; read-out: CIAP-BIR3 Binding Biacore (Competitive) EC50
pEC50: −log10 of the molar value.
Measure: pEC50

Compound	Measurement Target	Recorded Value
CN[C@@H](C)C(=O)N[C@@H](Cc1ccc(NC(=O)c2cccc(C(=O)Nc3ccc(C[C@H](NC(=O)[C@H](C)NC)C(=O)N4CCC[C@H]4c4cncc(C(=O)c5ccc(F)cc5)c4)cc3)c2)cc1)C(=O)N1CCCC1c1cncc(C(=O)c2ccc(F)cc2)c1 (stereo partly shown)	cIAP1-BIR3 (Homo sapiens, UniProt Q13490)	9.17 to 9.18
CN[C@@H](C)C(=O)N[C@@H](CCCCNC(=O)c1ccc(-c2ccc(C(=O)NCCCC[C@H](NC(=O)[C@H](C)NC)C(=O)N3CCC[C@H]3c3cncc(C(=O)c4ccc(F)cc4)c3)cc2)cc1)C(=O)N1CCC[C@H]1c1cncc(C(=O)c2ccc(F)cc2)c1	cIAP1-BIR3 (Homo sapiens, UniProt Q13490)	8.51 to 9.24
O=C(NCCCC[C@H](NC(=O)[C@@H]1CCN1)C(=O)N1CCC[C@H]1c1cncc(C(=O)c2ccc(F)cc2)c1)c1ccc(-c2ccc(C(=O)NCCCC[C@H](NC(=O)[C@@H]3CCN3)C(=O)N3CCC[C@H]3c3cncc(C(=O)c4ccc(F)cc4)c3)cc2)cc1	cIAP1-BIR3 (Homo sapiens, UniProt Q13490)	7.71 to 7.73
CN[C@@H](C)C(=O)N[C@@H](CCCCNS(=O)(=O)c1ccc(-c2ccc(S(=O)(=O)NCCCC[C@H](NC(=O)[C@H](C)NC)C(=O)N3CCC[C@H]3c3cncc(C(=O)c4ccc(F)cc4)c3)cc2)cc1)C(=O)N1CCC[C@H]1c1cncc(C(=O)c2ccc(F)cc2)c1	cIAP1-BIR3 (Homo sapiens, UniProt Q13490)	9.47 to 9.51

----------
Measurement Target: XIAP-BIR3 (Homo sapiens)
Sequence (P98170 241-356 limits assumed): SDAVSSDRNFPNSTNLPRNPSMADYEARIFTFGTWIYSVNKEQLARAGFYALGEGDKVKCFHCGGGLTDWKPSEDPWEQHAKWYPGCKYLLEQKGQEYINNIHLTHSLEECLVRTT
Measurement Notes: Biacore SPR solution competition binding assay vs smac7 mer peptide, XIAP-BIR3
Test Conditions: citrate salt form tested; 100 nM XIAP-BIR3; 25° C.; read-out: XIAP-BIR3 Binding Biacore (Competitive) EC50

Molecule	EC50
CN[C@@H](C)C(=O)N[C@@H](Cc1ccc(NC(=O)CCCCCCCCC(=O)Nc2ccc(C[C@H](NC(=O)[C@H](C)NC)C(=O)N3CCC[C@H]3c3cncc(C(=O)c4ccc(F)cc4)c3)cc2)cc1)C(=O)N1CCC[C@H]1c1cncc(C(=O)c2ccc(F)cc2)c1 [Example 2B]	131 to 194 nM
CN[C@@H](C)C(=O)N[C@@H](CCCCNC(=O)CCCCCC(=O)NCCCC[C@H](NC(=O)[C@H](C)NC)C(=O)N1CCC[C@H]1c1cncc(C(=O)c2ccc(F)cc2)c1)C(=O)N1CCC[C@H]1c1cncc(C(=O)c2ccc(F)cc2)c1 [Example 1A]	126 to 131 nM
CN[C@@H](C)C(=O)N[C@@H](Cc1ccc(NC(=O)CCCCCC(=O)Nc2ccc(C[C@H](NC(=O)[C@H](C)NC)C(=O)N3CCC[C@H]3c3cncc(C(=O)c4ccc(F)cc4)c3)cc2)cc1)C(=O)N1CCC[C@H]1c1cncc(C(=O)c2ccc(F)cc2)c1 [Example 2A]	146 to 154 nM
CN[C@@H](C)C(=O)N[C@@H](Cc1ccc(NC(=O)CCCCC(=O)Nc2ccc(C[C@H](NC(=O)[C@H](C)NC)C(=O)N3CCC[C@H]3c3cncc(C(=O)c4ccc(F)cc4)c3)cc2)cc1)C(=O)N1CCC[C@H]1c1cncc(C(=O)c2ccc(F)cc2)c1 [Example 2C]	125 to 138 nM
